assayProtocol: Pharmacokinetics of intraperitoneal or intravenous injection in CD1 mice
Format: in vivo
measurementConditions: male, CD1, mouse, plasma, ip, 10 mg/kg, IP 10 mg/kg, CD1 mice plasma, 2 h; read-out: Conc. (ng/mL) Mouse 1
quantityName: concentration at 2 h (ng/mL)

I: CN(c1cccc(CNc2nc(Nc3ccc(OCCCOCCC(=O)NCCOc4cccc5c4C(=O)N(C4CCC(=O)NC4=O)C5=O)cc3)ncc2C(F)(F)F)c1)S(C)(=O)=O (centres unmarked)
II: Cc1ncsc1-c1ccc(CNC(=O)[C@@H]2C[C@@H](O)CN2C(=O)[C@@H](NC(=O)COCCOc2ccc(Nc3ncc(C(F)(F)F)c(NCc4cccc(N(C)S(C)(=O)=O)c4)n3)cc2)C(C)(C)C)cc1
III: Cc1ncsc1-c1ccc(CNC(=O)[C@@H]2C[C@@H](O)CN2C(=O)[C@@H](NC(=O)COCCCOc2ccc(Nc3ncc(C(F)(F)F)c(NCc4cccc(N(C)S(C)(=O)=O)c4)n3)cc2)C(C)(C)C)cc1
Ordering: ascending concentration at 2 h. As an answer, provide the labels arranged in the order called for. I, II, III

Cited source for all entries: patent US20200038513A1
